EXPERIMENTAL_SYSTEM: human recombinant renin (Homo sapiens (Human))
Sequence (P00797 67-406): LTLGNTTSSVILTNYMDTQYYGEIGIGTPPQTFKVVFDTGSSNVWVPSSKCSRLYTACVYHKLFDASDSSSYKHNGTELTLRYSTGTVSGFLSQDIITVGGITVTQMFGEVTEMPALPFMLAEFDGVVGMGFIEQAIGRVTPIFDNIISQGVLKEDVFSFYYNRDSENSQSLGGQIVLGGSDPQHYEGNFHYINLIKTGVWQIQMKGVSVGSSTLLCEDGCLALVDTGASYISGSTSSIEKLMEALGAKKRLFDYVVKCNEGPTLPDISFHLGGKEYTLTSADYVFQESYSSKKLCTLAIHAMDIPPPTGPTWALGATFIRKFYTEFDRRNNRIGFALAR
ASSAY_COMMENT: human renin activity inhibition (SensoLyte 520 Renin Assay Kit Fluorimetric)
Format: biochemical
STATED_CONDITIONS: 30 min preincubation at 37° C., fluorescence at 530 nm after 15 min at 37° C., read-out: IC50 (nM), inhibitory effect on human renin activity
Form field: IC50 (one value per entry).

# example entries with known answers
| MOLECULE | RECORDED_MEASUREMENT |
| --- | --- |
| CO[C@H]1C[C@H](Nc2cc(C3CC3)cnc2C(=O)N(CC(C)C)[C@@H]2CNC[C@H](CO)C2)C1 [Compound 35] | < 20 nM |
| CO[C@H]1C[C@H](Nc2cc(C3CC3)cnc2C(=O)N(CC(C)C)[C@@H]2CNC[C@H](c3nc(C)no3)C2)C1 [Compound 29] | < 10 nM |
| CO[C@H]1C[C@H](Nc2cc(C3CC3)cnc2C(=O)N(CC(C)C)[C@@H]2CNC[C@H](c3ncon3)C2)C1 [Compound 39] | < 10 nM |
| Cc1noc(C2CNC[C@@H](N(CC(C)C)C(=O)c3ncc(C4CC4)cc3NC3COC3)C2)n1 (stereo in doubt) [Compound 38] | < 50 nM |
| CC(C)CN(C(=O)c1ncc(C2CC2)cc1NC1CC1)[C@@H]1CNC[C@H](C(=O)N2CCOCC2)C1 [Compound 25] | < 10 nM |

QUERY: Need IC50 of CO[C@H]1C[C@H](Nc2cc(C3CC3)cnc2C(=O)N(CC(C)C)[C@@H]2CNC[C@H](c3noc(C)n3)C2)C1 [Compound 28] , thanks.
RESULT: < 10 nM

QUERY: Recorded IC50 of CC(C)CN(C(=O)c1ncc(C2CC2)cc1NC1COC1)[C@@H]1CNC[C@H](C(=O)N2CCOCC2)C1 [Compound 30] , please.
RESULT: < 10 nM

Origin of measurements: patent US20240327385A1
